Tested on: MOLT-4 leukemia
assay: NCI tumour cell line growth inhibition, 48 h
propertyName: GI50

Reference set, count: 5
                                   compound  recordedresult
0  O=c1c2c(=NCCCN3CCCC3)cc3c(=O)n(CCCN4CCCC4)c(=O)c4c(NCCCN5CCCC5)cc(c(O)n1CCCN1CCCC1)c2c4-3         6630 nM
1  COc1cc(C(=O)c2c(-c3ccccc3)oc3ccccc23)cc(OC)c1O         2690 nM
2    N#CC(C#N)=C/C=C/c1cccc([N+](=O)[O-])c1          391 nM
3  NC(=NC1C2CC3CC(C2)CC1C3)Nc1ccc(I)cc1 (stereo unspecified)         2220 nM
4  Fc1ccc(-c2c(-c3ccncc3)n(CCN3CCOCC3)c3cccnc23)cc1      > 25000 nM

Please find the next compound below.
Item "O=C(O)CCN1C(=O)/C(=C/C(Cl)=C/c2ccccc2)SC1=S" : provide GI50
1980 nM
